- EXPERIMENT_SUMMARY: in vivo
- CONDITION_INFO: mouse, po, mice p.o., observation time 7 days, read-out: Acute toxicity LD50 (converted)
Quick reference for LD50 among some molecules

MOLECULE | LD50
CCOC(=O)C1(CCOCCCC2CCCCC2)CO1 (stereo not shown) | 570 mg/kg
CCOC(=O)C1(CCCC2CCCCC2)CO1 (stereo not shown) | 1400 mg/kg
CCOC(=O)C1(CCCCC2CCCC2)CO1 (stereo not shown) | 1600 mg/kg
CCOC(=O)C1(CCCC2CCCC2)CO1 (stereo not shown) | 2400 mg/kg
CCOC(=O)C1(CCCC2CCCCCC2)CO1 (stereo not shown) | 790 mg/kg
CCOC(=O)C1(CCCCCC2CCCCC2)CO1 (stereo not shown) | 520 mg/kg

*Q* Output LD50 of CCOC(=O)C1(CCCCCC2CCCCCC2)CO1 (stereo not shown)
*A* 330 mg/kg

====

- System: blood glucose concentration
- EXPERIMENT_SUMMARY: Determination of glucose in the blood after a single oral administration (fasted, metabolically healthy rats)
- Set-up: species or system Sprague-Dawley rats
- CONDITION_INFO: Rattus norvegicus; fasted rats; single oral administration of 0.6 mmole/kg; maximum in the course of 6 hours; read-out: Change in the blood glucose concentration (in %) in vivo (maximum, relative to the control group)
PROPERTY_NAME: change in vivo at 600 µmol/kg (%)
Supply the numeric figure in %, leaving out any unit text.

*Q* Tell me measured change in vivo at 600 µmol/kg for CCOC(=O)C1(CCCC2CCCCCC2)CO1 (centres unmarked) please.
*A* -22

*Q* Item CCOC(=O)C1(CCCC2CCCC2)CO1 (centres unmarked) : provide change in vivo at 600 µmol/kg
*A* -15

*Q* Read off the recorded change in vivo at 600 µmol/kg for CCOC(=O)C1(CCCC2CCCCC2)CO1 (centres unmarked)
*A* -24

====

compounds and their reported change in vivo at 600 µmol/kg
- Tested on: blood glucose concentration
- EXPERIMENT_SUMMARY: Determination of glucose in the blood after a single oral administration (fasted, metabolically healthy rats)
- Set-up: species or system Sprague-Dawley rats
- CONDITION_INFO: Rattus norvegicus; fasted rats; single oral administration of 0.6 mmole/kg; maximum in the course of 6 hours; read-out: Change in the blood glucose concentration (in %) in vivo (maximum, relative to the control group)
Write the answer as a number in %, unit excluded.

Example cases with answers are listed next.
COMPOUND | VALUE_UNITS | change in vivo at 600 µmol/kg
CCOC(=O)C1(CCCCC2CCCC2)CO1 (centres unmarked) | % | -21
CCOC(=O)C1(CCCCCC2CCCCC2)CO1 (centres unmarked) | % | -48
CCOC(=O)C1(CCOCCCC2CCCCC2)CO1 (centres unmarked) | % | -30
CCOC(=O)C1(CCCCCC2CCCCCC2)CO1 (centres unmarked) | % | -18

// switching to the query compound
*Q* Recall and state the measured change in vivo at 600 µmol/kg for [H]/N=C(/N)N/C(=N/[H])NCCc1ccccc1 [Serial No. 2, Phenformin, reference compound] .
*A* -6
